- assayedTarget: GLIC (Gloeobacter violaceus)
- Sequence (Q7NDN8 44-359): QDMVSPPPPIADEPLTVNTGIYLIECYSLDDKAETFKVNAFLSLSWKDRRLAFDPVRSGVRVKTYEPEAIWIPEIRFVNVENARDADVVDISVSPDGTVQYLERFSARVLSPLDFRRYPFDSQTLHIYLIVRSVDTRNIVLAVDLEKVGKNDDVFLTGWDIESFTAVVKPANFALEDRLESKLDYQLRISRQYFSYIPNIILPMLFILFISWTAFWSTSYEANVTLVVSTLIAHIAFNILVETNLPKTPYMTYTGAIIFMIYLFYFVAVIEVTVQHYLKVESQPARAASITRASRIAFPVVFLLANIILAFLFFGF
Below: a set of entries, each annotated with reported concentration at which inhibition of GLIC was produced.
parameterMeasured: concentration at which inhibition of GLIC was produced

molecule: FC(F)(F)C(Cl)Br (stereo not shown)
assayedTarget: GLIC (Gloeobacter violaceus)
reportedMeasurement: 1 % of MAC
//
molecule: FCOC(C(F)(F)F)C(F)(F)F
assayedTarget: GLIC (Gloeobacter violaceus)
reportedMeasurement: 1 % of MAC
//
molecule: FC(F)OC(F)C(F)(F)F (stereo not shown)
assayedTarget: GLIC (Gloeobacter violaceus)
reportedMeasurement: 0.01 % of MAC
//
molecule: FC(F)OC(Cl)C(F)(F)F (stereo not shown)
assayedTarget: GLIC (Gloeobacter violaceus)
reportedMeasurement: 1 % of MAC

* * *

- assayedTarget: GLIC (Gloeobacter violaceus)
- testSettings: Hill (one-site) fit of inhibition of GLIC currents; mean ± se

compound: [Xe]
Hill Coefficient: 1.9
--
compound: FCOC(C(F)(F)F)C(F)(F)F
Hill Coefficient: 0.27
--
compound: CC(C)c1cccc(C(C)C)c1O
Hill Coefficient: 0.42
--
compound: FC(F)OC(Cl)C(F)(F)F (stereo not shown)
Hill Coefficient: 0.32
--
compound: FC(F)(F)C(Cl)Br (stereo not shown)
Hill Coefficient: 0.27
--
compound: FC(F)OC(F)C(F)(F)F (stereo not shown)
Hill Coefficient: 0.25
